Target System: Cytochrome P450 3A4 (Homo sapiens) (UniProt P08684)
Sequence (P08684 whole entry, looked up): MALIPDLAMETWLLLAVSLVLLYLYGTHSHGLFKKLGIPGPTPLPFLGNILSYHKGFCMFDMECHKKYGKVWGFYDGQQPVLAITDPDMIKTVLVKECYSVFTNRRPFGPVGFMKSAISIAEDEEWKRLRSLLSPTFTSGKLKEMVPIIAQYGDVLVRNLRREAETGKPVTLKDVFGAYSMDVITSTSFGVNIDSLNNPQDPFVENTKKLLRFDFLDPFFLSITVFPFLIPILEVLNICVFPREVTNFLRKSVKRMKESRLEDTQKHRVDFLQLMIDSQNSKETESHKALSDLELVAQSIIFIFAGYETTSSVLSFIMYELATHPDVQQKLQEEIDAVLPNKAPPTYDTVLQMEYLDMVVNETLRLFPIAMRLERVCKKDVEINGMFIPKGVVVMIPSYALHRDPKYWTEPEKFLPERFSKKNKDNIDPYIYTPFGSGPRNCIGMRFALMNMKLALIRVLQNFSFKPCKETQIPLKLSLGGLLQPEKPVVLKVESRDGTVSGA
Test Protocol: Cytochrome P450 Family 3 Subfamily A Member 4 (CYP3A4) small molecule antagonists: luciferase reporter qHTS assay (AID 1671201); note: nearly all actives have a fitted effect of over 50% in size
Conditions: P450-Glo CYP3A4 enzyme, luciferin luminescence, 1 h; series mostly up to 115 µM
Results filed as inconclusive are left out. The source made the active and inactive calls. Calls come from the whole dose curve; as a rule, active = well fitted inhibition curve with a large enough effect in the repeat runs; inconclusive = weak or mixed curves; inactive = no such curve, though single readings can be large or run the other way.
Can you answer with just one of these options? active, inactive

## Input Hi team, can someone confirm the assay call for CCCC(=O)Cl ?
## Output inactive

## Input Now consider CCOP(=O)(OCC)O/C(=C/Cl)c1ccc(Cl)cc1Cl and answer again.
## Output inactive

## Input Now consider CO/C=C(/C(=O)OC)c1ccccc1COc1cccc(C(F)(F)F)n1 and answer again.
## Output inactive

## Input Now consider O=C(CBr)c1ccccc1 and answer again.
## Output inactive

## Input Now consider CN(N=O)c1ccc([N+](=O)[O-])cc1 and answer again.
## Output inactive

## Input Now consider COc1cc(CC(C)N)cc2c1OCO2 (configuration not stated) and answer again.
## Output inactive

## Input Now consider COC(=O)C(Br)CBr (configuration not stated) and answer again.
## Output inactive

## Input Now consider CC(C)O.CC(C)O.OCCN(CCO)CCO.OCCN(CCO)CCO.[Ti] and answer again.
## Output inactive

## Input Now consider O=C(O)C(F)(F)C(F)(F)C(F)(F)C(F)(F)C(F)(F)C(F)(F)C(F)(F)C(F)(F)C(F)(F)C(F)(F)F and answer again.
## Output inactive

## Input Now consider ClCc1ccccc1 and answer again.
## Output inactive

## Input Now consider O=C(O)C(F)(F)C(F)(F)C(F)(F)C(F)(F)C(F)(F)C(F)(F)C(F)(F)C(F)(F)C(F)(F)F and answer again.
## Output inactive

## Input Now consider CCCCCCCCOC(=O)c1ccc(C(=O)OCCCCCCCC)c(C(=O)OCCCCCCCC)c1 and answer again.
## Output inactive

## Input Now consider COc1ccc(-c2ccccc2)cc1NNC(=O)OC(C)C and answer again.
## Output active

## Input Now consider CC(C)(C)c1cc([N+](=O)[O-])cc([N+](=O)[O-])c1O and answer again.
## Output inactive

## Input Now consider CO/N=C(/C(=O)OC)c1ccccc1COc1ccccc1C and answer again.
## Output inactive

## Input Now consider CCCCCCC#N and answer again.
## Output inactive

## Input Now consider C[C@]12CC[C@H]3[C@@H](CCC4=CC(=O)CC[C@@H]43)[C@@H]1CC[C@@H]2OC(=O)CCC1CCCCC1 and answer again.
## Output inactive

## Input Now consider Clc1cccc2ccccc12 and answer again.
## Output inactive

## Input Now consider C(=NC1CCCCC1)=NC1CCCCC1 and answer again.
## Output inactive

## Input Now consider CC(=O)C(C)(C)C and answer again.
## Output inactive

## Input Now consider COc1nn(C(=O)NS(=O)(=O)c2ccccc2OC(F)(F)F)c(=O)n1C and answer again.
## Output inactive

## Input Now consider CC1(C)CCC(Cc2ccc(Cl)cc2)C1(O)Cn1cncn1 (configuration not stated) and answer again.
## Output active

## Input Now consider C=CC(=O)OCCCCO and answer again.
## Output inactive

## Input Now consider C[N+](C)(C)CCCl and answer again.
## Output inactive

## Input Now consider ClCC(Br)CBr (configuration not stated) and answer again.
## Output inactive

## Input Now consider O=C(O)C1(c2ccc3c(c2)OC[C@H](Cc2ccc(-c4ccccc4)cc2)[C@H]3O)CCCC1 and answer again.
## Output inactive

## Input Now consider C=CC(=O)NCNC(=O)C=C and answer again.
## Output inactive

* * *

Test Protocol: A CellTox Green Cytotoxicity Assay to monitor cytotoxicity in HepG2 cells - 32 hour (AID 1224883); note: nearly all actives have a fitted effect of over 50% in size; note: potency is the fitted concentration of half-maximal effect
Conditions: CellTox Green fluorescence; series mostly up to 76.8 µM
Results filed as inconclusive are left out. Calls of active or inactive are those of the source. Calls come from the whole dose curve; as a rule, active = well fitted activation curve with a large enough effect in the repeat runs; inconclusive = weak or mixed curves; inactive = flat fitted curve, though single readings scatter.
Quantity Measured: Potency

{"Compound": "CN1[C@@H]2CC[C@H]1CC(OC(=O)c1cc(Cl)cc(Cl)c1)C2 (stereo partly specified)", "Potency": "23.9 µM (active)"}
{"Compound": "O=NN1CCCCCC1", "Potency": "inactive"}
{"Compound": "CN1C[C@H](CNC(=O)OCc2ccccc2)C[C@@H]2c3cccc4c3c(cn4C)C[C@H]21", "Potency": "26.8 µM (active)"}
{"Compound": "Cc1ccc(-c2c(Cl)nc(C#N)n2S(=O)(=O)N(C)C)cc1", "Potency": "inactive"}
{"Compound": "CCc1ccc(C(=O)NN(C(=O)c2cc(C)cc(C)c2)C(C)(C)C)cc1", "Potency": "inactive"}

## Input Sample C=CCC1([C@H](C)CCC)C(=O)NC(=O)NC1=O — what was its Potency?
## Output inactive

* * *

Test Protocol: qHTS assay to identify small molecule antagonists of the retinoic acid receptor (RAR) signaling pathway (AID 1159552; note: nearly all actives have a fitted effect of over 50% in size)
Conditions: C3RL4 RARE luciferase reporter, retinol-stimulated, 6 h; series mostly up to 92.4 µM
Results filed as inconclusive are left out. Activity calls are given as the source filed them. Calls come from the whole dose curve; as a rule, active = well fitted inhibition curve with a large enough effect in the repeat runs; inconclusive = weak or mixed curves, or effect the other way; inactive = no such curve, though single readings can be large or run the other way.
Can you answer with just one of these options? active, inactive

## Input Hi team, can someone confirm the assay call for CC(C)(OO)c1ccccc1 ?
## Output inactive

## Input Now consider C=CCOC(C)=O and answer again.
## Output inactive

## Input Now consider C(=NC1CCCCC1)=NC1CCCCC1 and answer again.
## Output inactive

## Input Now consider CC(C)(CCl)C(=O)Cl and answer again.
## Output inactive

## Input Now consider O=C(Nc1ccccc1)Nc1ccnc(Cl)c1 and answer again.
## Output inactive

## Input Now consider II and answer again.
## Output active

## Input Now consider CCCCC(CC)COP(=O)(Oc1ccccc1)Oc1ccccc1 (stereo not drawn) and answer again.
## Output inactive

## Input Now consider Oc1ccc(Cl)c(Cl)c1Cl and answer again.
## Output active

* * *

Target System: Aromatase (Homo sapiens) (UniProt P11511)
Sequence (P11511 whole entry, looked up): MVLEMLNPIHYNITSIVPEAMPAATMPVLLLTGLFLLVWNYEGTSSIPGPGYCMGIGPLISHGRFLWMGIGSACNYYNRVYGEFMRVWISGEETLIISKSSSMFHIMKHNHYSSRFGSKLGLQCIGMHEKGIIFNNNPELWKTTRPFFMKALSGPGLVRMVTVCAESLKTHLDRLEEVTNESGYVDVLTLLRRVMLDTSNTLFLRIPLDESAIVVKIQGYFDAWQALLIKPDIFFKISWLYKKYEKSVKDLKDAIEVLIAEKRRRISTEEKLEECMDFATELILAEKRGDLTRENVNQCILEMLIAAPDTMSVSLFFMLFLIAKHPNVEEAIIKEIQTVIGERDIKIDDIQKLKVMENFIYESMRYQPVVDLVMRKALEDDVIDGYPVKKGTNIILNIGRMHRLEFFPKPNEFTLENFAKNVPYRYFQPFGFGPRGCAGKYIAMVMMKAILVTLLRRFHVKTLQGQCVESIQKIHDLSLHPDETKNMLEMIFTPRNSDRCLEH
Test Protocol: qHTS assay to identify aromatase inhibitors (AID 743083); note: nearly all actives have a fitted effect of over 55% in size
Conditions: MCF-7 aro ERE, testosterone-driven ERE luciferase, 24 h; series mostly up to 70.3 µM
Results filed as inconclusive are left out. Active and inactive are the calls of the source. Calls follow the shape of the dose curve; as a rule, active = well fitted inhibition curve with a large enough effect in the repeat runs; inconclusive = weak or mixed curves; inactive = no such curve, though single readings can be large or run the other way.
Can you answer with just one of these options? active, inactive

## Input Hi team, can someone confirm the assay call for CCCCc1c(C)nc(NCC)nc1OS(=O)(=O)N(C)C ?
## Output inactive

## Input Now consider Brc1ccccc1 and answer again.
## Output inactive

## Input Now consider O=C(CBr)OCc1ccccc1 and answer again.
## Output inactive

## Input Now consider ClCC(Br)CBr (stereo not drawn) and answer again.
## Output inactive

## Input Now consider COC(=O)C(Br)CBr (stereo not drawn) and answer again.
## Output inactive

## Input Now consider COc1cc(Cl)c(OC)cc1Cl and answer again.
## Output inactive

## Input Now consider NC(=O)CI and answer again.
## Output inactive

## Input Now consider Clc1cc(C(Cl)(Cl)Cl)cnc1Cl and answer again.
## Output active

## Input Now consider CCCC(=O)Cl and answer again.
## Output inactive

## Input Now consider COC(C)(C)CCC[C@H](C)C/C=C/C(C)=C/C(=O)OC(C)C and answer again.
## Output inactive

## Input Now consider Cn1sc(Cl)cc1=O and answer again.
## Output inactive

## Input Now consider Clc1cccc(SC2CCNCC2)n1 and answer again.
## Output inactive

## Input Now consider CCCN(CCCl)c1c([N+](=O)[O-])cc(C(F)(F)F)cc1[N+](=O)[O-] and answer again.
## Output inactive

## Input Now consider O=C1C(Cl)C(CCl)CN1c1cccc(C(F)(F)F)c1 (stereo not drawn) and answer again.
## Output inactive

## Input Now consider CCC(Br)(CC)C(=O)NC(N)=O and answer again.
## Output inactive

## Input Now consider C[N+](C)(C)CCCl and answer again.
## Output inactive

## Input Now consider C=CC(=O)NCNC(=O)C=C and answer again.
## Output inactive

## Input Now consider COP(=O)(OC)O/C(=C/Cl)c1cc(Cl)c(Cl)cc1Cl and answer again.
## Output active

## Input Now consider CC1(C)[C@H](C=C(Cl)Cl)[C@@H]1C(=O)O[C@@H](C#N)c1cccc(Oc2ccccc2)c1 and answer again.
## Output inactive

## Input Now consider COc1nn(CSP(=S)(OC)OC)c(=O)s1 and answer again.
## Output active

## Input Now consider COP(=S)(OC)Oc1cc(Cl)c(I)cc1Cl and answer again.
## Output inactive

## Input Now consider C=C(C#N)CCC#N and answer again.
## Output inactive

## Input Now consider N#Cc1ccc(Cl)cc1 and answer again.
## Output inactive

## Input Now consider CC(=O)NC1CCSC1=O (stereo not drawn) and answer again.
## Output inactive

## Input Now consider C/C(=C\c1ccccc1)[N+](=O)[O-] and answer again.
## Output active

## Input Now consider CN1[C@@H]2CC[C@H]1CC(OC(=O)c1cc(Cl)cc(Cl)c1)C2 (stereo partly drawn) and answer again.
## Output inactive

## Input Now consider CCCCC(O)(Cn1cncn1)c1ccc(Cl)cc1Cl (stereo not drawn) and answer again.
## Output active

## Input Now consider CC(=O)c1cc2c(cc1C)C(C)(C)C(C)CC2(C)C (stereo not drawn) and answer again.
## Output active

## Input Now consider CCOC(=O)[C@]1(c2ccccc2)Oc2ccccc2[C@@H]1N and answer again.
## Output active

## Input Now consider BrCCCCBr and answer again.
## Output inactive

## Input Now consider CCOP(=S)(OCC)Oc1nc(Cl)c(Cl)cc1Cl and answer again.
## Output inactive

## Input Now consider O=S1(=O)OC(c2cc(Br)c(O)c(Br)c2)(c2cc(Br)c(O)c(Br)c2)c2ccccc21 and answer again.
## Output active

## Input Now consider O=C(Nc1ccccc1)Nc1ccnc(Cl)c1 and answer again.
## Output active

## Input Now consider C=CC(=O)OCC(C)C and answer again.
## Output inactive

## Input Now consider S=C=NCc1ccccc1 and answer again.
## Output inactive

## Input Now consider CC(Cl)Cl and answer again.
## Output inactive

## Input Now consider CCCCCCCCCCOC(=O)c1ccccc1C(=O)OCCCCCCCCCC and answer again.
## Output inactive

## Input Now consider C/C=C/C=O and answer again.
## Output inactive

## Input Now consider O=C(C(Cl)(Cl)Cl)C(Cl)(Cl)Cl and answer again.
## Output inactive

## Input Now consider CCCN(CCC)c1c([N+](=O)[O-])cc(S(C)(=O)=O)cc1[N+](=O)[O-] and answer again.
## Output inactive

## Input Now consider CCc1ccc(C(=O)NN(C(=O)c2cc(C)cc(C)c2)C(C)(C)C)cc1 and answer again.
## Output inactive

## Input Now consider N#CCc1ccccc1 and answer again.
## Output inactive

## Input Now consider O=[N+]([O-])c1ccc(F)c([N+](=O)[O-])c1 and answer again.
## Output inactive

## Input Now consider COc1cc(CC(C)N)cc2c1OCO2 (stereo not drawn) and answer again.
## Output inactive

## Input Now consider CN1C(=O)C(O)N=C(c2ccccc2)c2cc(Cl)ccc21 (stereo not drawn) and answer again.
## Output inactive

## Input Now consider CNP(=O)(OC)Oc1ccc(C(C)(C)C)cc1Cl (stereo not drawn) and answer again.
## Output inactive

## Input Now consider C=CCCl and answer again.
## Output inactive

## Input Now consider C=CC(=O)OC(C)(C)C and answer again.
## Output inactive

## Input Now consider BrCC(Br)C1CCC(Br)C(Br)C1 (stereo not drawn) and answer again.
## Output inactive

## Input Now consider C=CCC1([C@H](C)CCC)C(=O)NC(=O)NC1=O and answer again.
## Output inactive

## Input Now consider CS/C(C)=N/OC(=O)N(C)SN(C)C(=O)O/N=C(\C)SC and answer again.
## Output inactive

## Input Now consider CC(C)(C)C(O)C(Oc1ccc(Cl)cc1)n1cncn1 (stereo not drawn) and answer again.
## Output active

## Input Now consider O=[N+]([O-])c1ccccc1CCl and answer again.
## Output inactive

## Input Now consider Clc1ccc(C2(Cn3cncn3)CC(Br)CO2)c(Cl)c1 (stereo not drawn) and answer again.
## Output active

## Input Now consider NC(=O)C(Cl)(Cl)Cl and answer again.
## Output inactive

## Input Now consider CCCCNP(N)(N)=S and answer again.
## Output inactive

## Input Now consider CC(C)(CCl)C(=O)Cl and answer again.
## Output inactive

## Input Now consider CCCCC(CC)COP(=O)(Oc1ccccc1)Oc1ccccc1 (stereo not drawn) and answer again.
## Output inactive
